Just for reference, paper PMC12362783 is where these values come from.

# IC50 measurements, system: PARP1 (Homo sapiens, UniProt P09874)
# Sequence (P09874 whole entry): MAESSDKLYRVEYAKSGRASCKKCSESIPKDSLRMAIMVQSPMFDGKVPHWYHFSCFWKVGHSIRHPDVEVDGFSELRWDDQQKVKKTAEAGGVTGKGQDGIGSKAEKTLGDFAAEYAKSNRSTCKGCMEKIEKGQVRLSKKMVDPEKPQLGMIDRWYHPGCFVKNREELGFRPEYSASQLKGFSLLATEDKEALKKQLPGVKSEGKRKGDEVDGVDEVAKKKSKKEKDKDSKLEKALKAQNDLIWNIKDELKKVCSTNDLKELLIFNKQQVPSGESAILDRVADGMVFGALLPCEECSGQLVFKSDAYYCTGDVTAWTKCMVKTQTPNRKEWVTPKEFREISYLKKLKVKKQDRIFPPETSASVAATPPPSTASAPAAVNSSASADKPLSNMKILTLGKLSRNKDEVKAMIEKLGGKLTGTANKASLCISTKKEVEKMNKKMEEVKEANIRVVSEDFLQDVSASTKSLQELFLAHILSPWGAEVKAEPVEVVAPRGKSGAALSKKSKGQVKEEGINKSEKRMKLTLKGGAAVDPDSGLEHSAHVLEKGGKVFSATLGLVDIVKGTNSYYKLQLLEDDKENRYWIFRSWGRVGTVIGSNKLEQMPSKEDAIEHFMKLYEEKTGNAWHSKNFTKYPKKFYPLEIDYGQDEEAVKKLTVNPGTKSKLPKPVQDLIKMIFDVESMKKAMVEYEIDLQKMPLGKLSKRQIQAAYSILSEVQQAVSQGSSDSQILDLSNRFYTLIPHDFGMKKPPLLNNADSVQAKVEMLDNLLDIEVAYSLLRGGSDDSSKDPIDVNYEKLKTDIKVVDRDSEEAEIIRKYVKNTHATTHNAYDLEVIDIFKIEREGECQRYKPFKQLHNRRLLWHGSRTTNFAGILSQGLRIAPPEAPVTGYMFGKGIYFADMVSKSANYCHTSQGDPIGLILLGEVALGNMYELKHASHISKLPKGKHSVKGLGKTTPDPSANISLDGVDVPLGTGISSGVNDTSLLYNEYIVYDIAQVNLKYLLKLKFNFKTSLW
measurement_label: IC50

smiles_repr | obs_value
C[C@@H]1COCCN1c1cc(CNS(=O)(=O)C2CCN(C(=O)c3cc(Cc4n[nH]c(=O)c5ccccc45)ccc3F)CC2)nc(-c2ccnc3[nH]ccc23)n1 | 0.46 nM
C[C@@H]1COCCN1c1cc(C2(NC(=O)N3CCN(C(=O)c4cc(Cc5n[nH]c(=O)c6ccccc56)ccc4F)CC3)CC2)nc(-c2ccnc3[nH]ccc23)n1 | 0.98 nM
C[C@@H]1COCCN1c1cc(C2(NC(=O)CNC(=O)c3cc(Cc4n[nH]c(=O)c5ccccc45)ccc3F)CC2)nc(-c2ccnc3[nH]ccc23)n1 | 12 nM
C[C@@H]1COCCN1c1cc(CNS(=O)(=O)c2ccc(C(=O)N3CCN(C(=O)c4cc(Cc5n[nH]c(=O)c6ccccc56)ccc4F)CC3)cc2)nc(-c2ccnc3[nH]ccc23)n1 | 0.64 nM
